Test system: CD2F1 mice, L1210 leukemia ip, survival T/C
PROTOCOL_TEXT: NCI In Vivo Anticancer Drug Screen. Data for tumor model L1210 Leukemia (intraperitoneal) in CD2F1 (CDF1) mice
APPLIED_CONDITIONS: endpoint: mean survival time; dose: 100.0 mg/kg/injection; schedule: Q04DX003 (ip); vehicle: saline with Tween-80; higher = longer survival
Description: The antitumor activity of compounds was measured in mice bearing transplantable tumors. Survival or tumor size were measured and the results are expressed as the measurement made in the treated group (T) divided by the measurement made in the vehicle treated control group (C). The tumor model used in this assay is L1210 Leukemia (intraperitoneal) in CD2F1 (CDF1) mice
Toxic doses and inconclusive results are not listed.
VALUE_KIND: T/C

1) O=C(c1ccc2c(c1)OCO2)c1ccc[nH]1 :: 94 % of control
2) CCN(C(=O)Nc1ccccc1OC)c1ccccc1 :: 98 % of control
3) Cc1c(F)c(F)c(C(=O)O)c(F)c1F :: 100 % of control
4) C=C(Br)CSC#N :: 96 % of control

Lab note: measured T/C of O=C(Nc1cccc(Cl)c1)c1ccccc1 was 91 % of control

T/C measured on CCCCCCCCCCC/C=C\C(C#N)C(=O)OCC (centres undefined) = 103 % of control

Kindly note the recorded T/C for [C-]#[N+]CCS(=O)(=O)CC[N+]#[C-] , which is 102 % of control

So, CCN(CC)C(=O)/C=C/c1ccccc1 ? Its T/C was 103 % of control

The recorded T/C for Nc1nc(Cl)cc(-c2ccccc2)n1 is 102 % of control

Form field T/C, entry Cc1c2ccccc2c(C)c2c1ccc1ccccc12 : 106 % of control

The value of T/C measured for the molecule BrC(Br)(c1ccccc1)C1OCCO1 turned out to be 101 % of control

// recorded T/C for CC#CC(=O)SCCNC(=O)CCNC(=O)CC(C)(C)C : 98 % of control

The molecule listed as CO[Si](c1ccccc1)(c1ccccc1)c1ccc(Br)cc1 shows T/C equal to 96 % of control

Form field T/C, entry O=C1C=C(NS(=O)(=O)c2ccccc2)C(=O)c2ccccc21 : 101 % of control

From: PubChem BioAssay AID256
